Field: apparent KD of MS2 coat protein. Provide a value for each of the sequences that follow.
- Tested on: MS2 coat protein
- Measurement notes: apparent KD of MS2 coat protein; higher = weaker reporter binding
- Measurement parameters: Eterna round: R107; input ligand: theophylline 20 uM
Lab book: enter the figure in nM, no units written.

q: Quick one: give measured apparent KD of MS2 coat protein for AACAUGUGGAUCACCCAUGUAUGUUCUGAAGGAGCGCCACAUGAGGCAGGUAGGUCGCAGGUACAUGAGGAUCACCCAUGUGUCA [Exclusion Arginine A 4]
a: 111

q: Could you please provide reported apparent KD of MS2 coat protein for GGACAACAUGAGGAUCACCCAUGUCCUGAUACCAGUCAGCGCAGUGACCCUUGGCAGCAGACGGAUACGAAAUAACUGAGAGAUA [theeternabot_sameState_MS2_Theo_A_44] ? Thanks!
a: 65

q: Please report apparent KD of MS2 coat protein for the following sequence: UAUAACAUGAGGAUCACCCAUGUAAGUGAUACCAGAUAAAUAAUAGUCCCUUGGCAGCAUAUUGGGAAAGUGUAUAAUAUAUAUU [Same State - Theophylline A (Freestyle 2)]
a: 66.1

q: Please give the documented apparent KD of MS2 coat protein of AUAACAUGAGGAUCACCCAUGUAGAGUGAUACCAGACUACGUAAUGUCCCUUGGCAGCACAAGUAAAGUUACGAAUAAUGAUAGA [JR_SSTheophyA_Sub002]
a: 146

q: Report measured apparent KD of MS2 coat protein; entry is UAUGCACAUGAGGAUCACCCAUGUAUGGAAGGAGCGGUGAAUGAACCAGGUAGGUCGCCAUGGUGAGGAUCAUCUAUGUAAUCGU [Exclusion - Arginine A (Freestyle 7)]
a: 117
